Tested on: HEL cells (human acute myelocytic leukemia cell lines);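 further: viable cell count by CellTiter-Glo 2.0 luminescence after 5 days of culture at 37 °C, growth expressed relative to DMSO-only wells as 100%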
Assay: cells
Details: read-out: Cell-Growth Inhibition Test: HEL Cells IC50 (nM)
Where a name gives a salt, the structure may show the parent alone.
# maps each entry to its log10(IC50)
A difference of one corresponds to tenfold IC50; all values are log10 with IC50 in nM.

# annotated cases, reported log10(IC50) shown
N#Cc1ccc(-c2cc(CN3C4CCC3C(N)C4)ccc2-c2cc3nnn(CC4(O)CCC4)c3c(Cl)c2F)cc1F (stereo not shown) [Example 286, dihydrochloride]
-1.44
CC(C)(O)Cn1nnc2cc(-c3ccc(CN4C5CCC4C(N)C5)cc3-c3ccc(C#N)c(F)c3)c(F)c(Br)c21 (stereo not shown) [Example 294, dihydrochloride]
-1.40
Cn1nnc2cc(-c3ccc(C(=O)N4C5CCC4C(N)C5)cc3-c3ccc(C#N)c(F)c3)c(F)c(F)c21 (stereo not shown)
-0.70
Cc1c(F)c(-c2ccc(C(=O)N3[C@@H]4CC[C@H]3C[C@@H](N)C4)cc2-c2ccc(C#N)c(F)c2)cc2nnn(CC3(O)CCC3)c12
0.18
Cn1cc(C(=O)O)c2cc(-c3ccc(C(=O)N4C5CCC4C(N)C5)cc3-c3ccc(C#N)c(F)c3)c(F)cc21 (stereo not shown)
1.66
CC(C)(O)Cn1nnc2cc(-c3ccc(CN4C5CCC4C(N)C5)cc3-c3ccc(C#N)c(F)c3)c(F)c(F)c21 (stereo not shown) [Example 285, dihydrochloride]
-1.34
CC(C)N[C@@H]1C[C@H]2CC[C@@H](C1)N2C(=O)c1ccc(-c2ccc(CC(C)(C)O)cc2F)c(-c2ccc(C#N)c(F)c2)c1
0.95
CC(C)(O)Cn1cc(C(=O)O)c2cc(-c3ccc(C(=O)N4C5CCC4C(N)C5)cc3-c3ccc(C#N)c(F)c3)c(F)cc21 (stereo not shown)
1.58

Quote log10(IC50) reported for `CC(C)(O)Cn1nnc2cc(-c3ccc(C(=O)N4[C@@H]5CC[C@H]4C[C@@H](N)C5)cc3-c3ccc(C#N)c(F)c3)c(F)c(C3CC3)c21` please.
1.38

Please give measured log10(IC50) of the following entry: `CN(C)c1ccc(-c2ccc(C(=O)N3[C@@H]4CC[C@H]3C[C@@H](N)C4)cc2-c2ccc(C#N)c(F)c2)cn1`
1.18

Given the compound `COCCc1ccc(-c2ccc(C(=O)N3[C@@H]4CC[C@H]3C[C@H](N)C4)cc2-c2ccc(C#N)c(F)c2)c(F)c1` , write its reported log10(IC50).
0.68

Specify measured log10(IC50) for `Cc1ccc(-c2ccc(C(=O)N3[C@@H]4CC[C@H]3C[C@H](N)C4)cc2-c2ccc(C#N)cc2)cc1` .
1.17

Specify measured log10(IC50) for `CC(C)(O)Cn1ccc2cc(-c3ccc(C(=O)N4[C@@H]5CC[C@H]4C[C@@H](N)C5)cc3-c3ccc(C#N)c(F)c3)c(F)c(F)c21` .
-0.27
